- test target: 5-HT7 receptor (Homo sapiens, UniProt P34969)
- Sequence (P34969 1-432 limits assumed): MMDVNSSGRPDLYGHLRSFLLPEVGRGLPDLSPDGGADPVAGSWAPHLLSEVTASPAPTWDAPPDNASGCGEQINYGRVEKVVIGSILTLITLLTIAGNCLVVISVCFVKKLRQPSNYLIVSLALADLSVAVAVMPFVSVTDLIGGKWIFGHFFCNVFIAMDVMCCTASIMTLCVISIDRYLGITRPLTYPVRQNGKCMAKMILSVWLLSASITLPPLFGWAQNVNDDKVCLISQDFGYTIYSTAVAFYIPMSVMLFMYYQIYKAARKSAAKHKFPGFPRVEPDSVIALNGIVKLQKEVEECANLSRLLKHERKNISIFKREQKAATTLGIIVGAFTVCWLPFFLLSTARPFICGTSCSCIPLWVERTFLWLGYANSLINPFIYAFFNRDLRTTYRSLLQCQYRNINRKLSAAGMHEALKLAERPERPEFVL
Strictly below 400 nM in Ki: Yes. Otherwise: No.

                               query_smiles  cat
0  Cl.Nc1nc(NCCNc2ccccc2F)nc(NCCc2c[nH]c3ccccc23)n1  Yes
1  Cl.N#Cc1ccc2[nH]cc(CCNc3nc(N)nc(NCCc4ccccc4)n3)c2c1   No
2  Cl.Nc1nc(NCCc2ccccc2)nc(NCCc2c[nH]c3ccc(Cl)cc23)n1   No
3  Cl.Nc1nc(NCCNc2ccccc2Cl)nc(NCCc2c[nH]c3ccccc23)n1   No
4  Cl.Nc1nc(NCCc2c[nH]c3ccccc23)nc(NCCn2cnc3ccccc32)n1  Yes
5  Cl.Nc1nc(NCCc2c[nH]c3ccccc23)nc(Nc2cccc(Cl)c2)n1   No
6  Cl.Nc1nc(NCCNc2ccc(Cl)cc2)nc(NCCc2c[nH]c3ccccc23)n1  Yes
7  Cl.Nc1nc(NCCNc2cccc(Cl)c2)nc(NCCc2c[nH]c3ccccc23)n1  Yes
8  Cl.Nc1nc(NCCc2ccccc2)nc(NCCc2c[nH]c3ccc(F)cc23)n1  Yes
9  COc1ccc(Nc2nc(N)nc(NCCc3c[nH]c4ccccc34)n2)cc1.Cl   No

* * *

Each record here notes measured viability at 72 h, 50 µM.
- assay explanation: Hepatotoxicity: HepG2 cell line viability
- Type: cell-based
- experimental conditions: human, HepG2 cells; HepG2, 50 µM, 72 h incubation
readout: viability at 72 h, 50 µM (%)

>>> print(df.to_string())
                               query_smiles  result_value
0  Cl.Nc1nc(NCCc2ccccc2)nc(NCCc2c[nH]c3ccc(F)cc23)n1            35
1  Cl.Nc1nc(NCCNc2ccc(F)cc2)nc(NCCc2c[nH]c3ccccc23)n1            20

* * *

Each record here notes measured pKi.
- test target: UniProt:P08908
- Sequence (P08908 1-422): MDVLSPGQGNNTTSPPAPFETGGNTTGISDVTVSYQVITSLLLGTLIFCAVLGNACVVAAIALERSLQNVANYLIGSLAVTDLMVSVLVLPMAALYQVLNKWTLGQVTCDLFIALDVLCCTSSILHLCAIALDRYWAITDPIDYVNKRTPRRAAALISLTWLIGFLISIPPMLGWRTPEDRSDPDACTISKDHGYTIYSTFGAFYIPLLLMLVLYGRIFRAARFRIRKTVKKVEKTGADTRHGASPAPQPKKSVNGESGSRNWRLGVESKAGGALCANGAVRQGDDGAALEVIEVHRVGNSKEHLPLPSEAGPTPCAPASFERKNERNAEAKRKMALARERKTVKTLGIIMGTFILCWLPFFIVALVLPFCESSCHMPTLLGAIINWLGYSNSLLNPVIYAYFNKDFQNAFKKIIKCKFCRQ
pKi: −log10 of the molar value.
readout: pKi

                               query_smiles  readout  result_value
0  Cl.Nc1nc(NCCNc2ccccc2F)nc(NCCc2c[nH]c3ccccc23)n1      pKi          4.44
1  Cc1ccc2[nH]cc(CCNc3nc(N)nc(NCCc4ccccc4)n3)c2c1.Cl      pKi          4.78
2  Cl.Nc1nc(NCCNc2ccccc2Cl)nc(NCCc2c[nH]c3ccccc23)n1      pKi          4.51
3  Cl.Nc1nc(NCCNc2cccc(Cl)c2)nc(NCCc2c[nH]c3ccccc23)n1      pKi          4.81
